test system: EKVX; test: NCI tumour cell line growth inhibition, 48 h
Active and inactive are the calls of the source. No stated cut-off is given here; in the data, active = GI50 up to about 1.1 µM and inactive = higher.
Here the recorded GI50 is given for each entry.

CCCCc1ccc(NC(=N)N)cc1 ... 30 µM (inactive)

Fill in: GI50 on EKVX, entry [N-]=[N+]=Nc1cc(=O)[nH]nc1-c1ccccc1 > 100 µM (inactive)

====

tested on: DU-145; test: NCI tumour cell line growth inhibition, 48 h
Activity calls are given as the source filed them. Cut-off read from the data, not from the text of the source: active = GI50 up to about 1.1 µM and inactive = higher.
assay endpoint: GI50

O=c1ccn([C@@H]2O[C@H](CO)[C@@H](O)[C@H]2F)c(=O)[nH]1 ... > 100 µM (inactive)
COC1OC2COC(c3ccccc3)OC2C(OC(=S)c2ccccc2)C1O (stereo unspecified) ... > 100 µM (inactive)
COc1ccc(/C(Nc2ccccc2)=C(\CCl)c2ccccc2)cc1OC ... 86.3 µM (inactive)
Nc1cc(-c2ccc(Cl)cc2)nn1-c1nc2ccccc2nc1-c1ccccc1 ... > 100 µM (inactive)
CC(=O)Nc1sc([N+](=O)[O-])cc1S(=O)(=O)c1ccc(Cl)cc1 ... 3.3 µM (inactive)

Report measured GI50; entry is CC1CCOc2ccc(cc2)/C=N\c2ccc(cc2)-c2ccc(cc2)/N=C\c2ccc(cc2)OCC1 > 100 µM (inactive)

Give GI50 for Nc1ncnc2c1ncn2C1CC(O)C(CO)O1 (stereo unspecified) > 100 µM (inactive)

Provide measured GI50 value, entry: O/N=N/c1ccc(-c2ccccc2)cn1 2.22 µM (inactive)

====

system: CAKI-1; experiment: NCI tumour cell line growth inhibition, 48 h
Calls of active or inactive are those of the source. Rule as the data show it: active = GI50 up to about 1.1 µM and inactive = higher.
Write down one outcome, taken from t = active, f = inactive

Record excerpt, results attached:
O=[N+]([O-])C(=C(Nc1cccc2cccnc12)Nc1cccc2cccnc12)C(Cl)=C(Cl)Cl ... f
CCC(C)N1CN(c2ccccc2)C2(CCN(CCCC3(c4ccc(F)cc4)OCCO3)CC2)C1=O (configuration not stated) ... f
CCCCCCCCCCCCCCCC[N+](C)(C)CCl ... f
O=C(CNc1nccs1)Nn1cnc2ccc(S(=O)(=O)Nc3nccs3)cc2c1=O ... f

Recorded test call requested for C=CCOC(=O)C1=C(C)N=C2N[C@H](CCCCCCCCC)C[C@@H]3CCC1N23 (some centres not stated) f

What was the test verdict on CCOC(=O)C(NC(=O)c1ccccc1)(c1ccc(S(=O)(=O)Nc2onc(C)c2C)cc1)C(F)(F)F (configuration not stated) ? f

// return assay outcome for Cc1cccc(NC(=O)/C(=N\N)C(c2cnc3ccc([N+](=O)[O-])cc3n2)[N+](=O)[O-])c1C (configuration not stated) f

State the result this test recorded for Cc1ccc(S(=O)(=O)NC2C(=O)c3ccccc3C(=O)C2n2ccnc2)cc1 (configuration not stated) . f

Which result was noted for this molecule in the test: Cc1cccc2[s+]snc12 f

Can you look up the reported call for Nn1c(-c2cccc(Cl)c2)nc2ccccc2c1=O for me? f

Test call, this molecule: CNC1=C/C(=N/C2=CC(=N/C(=C\C#N)C(C)(C)O)/OC2(C)C)OC1(C)C f

Could you check what this test reported for COC(=O)[C@@H](COC(=O)/C=C/c1ccc(OC(C)=O)c(OC(C)=O)c1)NC(=O)/C=C/c1ccc(OC(C)=O)c(OC(C)=O)c1 ? f

====

tested on: MDA-MB-435; assay: NCI tumour cell line growth inhibition, 48 h
Activity calls are given as the source filed them. Rule as the data show it: active = GI50 up to about 1.1 µM and inactive = higher.
assay endpoint: GI50

CCOc1ccc(/C(C=O)=C(\Cl)c2ccc(OC)cc2)cc1 ... 9.4 µM (inactive)
Cc1[nH]c(=O)c2oc3cc4ccccc4cc3c2c1C(=O)O ... > 10 µM (inactive)
O=[N+]([O-])c1cccc(-c2ccc([C@H]3CC(c4ccc(Cl)cc4)=NN3)o2)c1 ... 19.2 µM (inactive)
COC1OC2COC(c3ccccc3)OC2C(OC(=S)c2ccccc2)C1O (centres undefined) ... 10.9 µM (inactive)
Oc1ccc2ccccc2c1/N=N/c1ccccc1 ... > 100 µM (inactive)
CCOC(=O)c1nc2ccc(C(F)(F)F)cc2nc1NCc1cc(OC)c(OC)c(OC)c1 ... 35.6 µM (inactive)
CC1=C2C(=O)c3ccccc3C(=O)[C@H]2C[C@@H](N2CCCCCC2=O)O1 ... 16 µM (inactive)
O=C(O)CNC(=O)c1ccccc1O ... > 100 µM (inactive)
Clc1ccc(CSc2ncnc3c2ncn3C2CCCCO2)cc1 (centres undefined) ... 18.2 µM (inactive)
CC(=O)c1cn(-c2ccc(Cl)cc2)c(=O)c2c(N)n[nH]c12 ... > 100 µM (inactive)

Report GI50 from MDA-MB-435 testing of O=P(O)(O)c1ccc2c(c1)OCCOCCOCCOCCO2 > 100 µM (inactive)

Provide GI50, tested on MDA-MB-435, for C=C1C(O)C2OC(=O)C(=C)C2C(OC(=O)/C(C)=C/C)CC2(C)OC2C2OC12 (centres undefined) . 5.74 µM (inactive)

Specify the recorded GI50 for CCN(CC)CC1CCCCN1CC(=O)N1c2ccccc2NC(=O)CC1C (centres undefined) , system: MDA-MB-435. > 100 µM (inactive)

# assay system MDA-MB-435: give GI50 of CC(=O)Nc1sc([N+](=O)[O-])cc1S(=O)(=O)c1ccc(Cl)cc1 3.3 µM (inactive)

State the measured GI50 (MDA-MB-435) of NNC(=S)N/N=C(/C(=O)Nc1ccc(Cl)c(Cl)c1)C(C1OC(=O)c2ccccc21)[N+](=O)[O-] (centres undefined) > 100 µM (inactive)

Give GI50 for this entry on MDA-MB-435: CCN(CC)CCNC(=O)c1nn(-c2ccc(Cl)cc2)c2c1CCc1cc(OC)ccc1-2 9.98 µM (inactive)

With MDA-MB-435 as the test system, provide measured GI50 for this compound: Cc1nnc([C@@]2(C)CC[C@H]3[C@@H](CCC4=CC(=O)CC[C@@]43C)[C@@H]2CC#N)o1 > 100 µM (inactive)

Please report the measured GI50 for NCCCN1CCN(CCCNc2ccc3nnn4c5ccccc5c(=O)c2c34)CC1 tested on MDA-MB-435. 21.6 µM (inactive)

Param request: GI50 | system MDA-MB-435 | item CC[C@H](C)[C@H]1NC(=O)[C@@H](NC(=O)[C@@H](CC(C)C)N(C)C(=O)C2CCCN2C(=O)[C@H](C)O)[C@@H](C)OC(=O)[C@H](Cc2ccc(OC)cc2)N(C)C(=O)[C@@H]2CCCN2C(=O)[C@H](CCCCNC(=O)OCc2ccccc2)NC(=O)[C@H](C)C(=O)[C@H](C(C)C)OC(=O)C[C@@H]1O (some centres undefined) 5.86 µM (inactive)

====

tested on: SK-MEL-28; test: NCI tumour cell line growth inhibition, 48 h
Active and inactive are the calls of the source. Cut-off read from the data, not from the text of the source: active = GI50 up to about 1.1 µM and inactive = higher.
assay endpoint: GI50

The following molecules have reported results that may help.
CCN(CC)CC1CCCCN1CC(=O)N1c2ccccc2NC(=O)CC1C (stereo unspecified) ... > 100 µM (inactive)
CC(C)(C)OC(=O)N1CCc2[nH][nH]c(=O)c2C1 ... > 100 µM (inactive)
CC(=O)Nc1sc([N+](=O)[O-])cc1S(=O)(=O)c1ccc(Cl)cc1 ... 11 µM (inactive)
CCCC(=O)N[C@H]1C2C3CC4C5CC(C42)C1(C)C53 (stereo partly specified) ... > 100 µM (inactive)

Could you now consider this next molecule?
Note down GI50 recorded for COc1ccc(-n2c(Cn3nnc(-c4cccnc4)n3)nn(C3OC(COC(=O)c4ccccc4)C(OC(=O)c4ccccc4)C3OC(=O)c3ccccc3)c2=S)cc1 (stereo unspecified) > 100 µM (inactive)

====

tested on: EKVX; assay: NCI tumour cell line growth inhibition, 48 h
The source made the active and inactive calls. Rule as the data show it: active = GI50 up to about 1.1 µM and inactive = higher.
GI50: recorded values

CC1(C)C2CCC1(CC(=O)O)C(Cl)C2 (configuration not stated) ... > 100 µM (inactive)

Give the value of GI50 reported for the following: COC(=O)[C@@H]1N2C(=S)N(c3ccccc3)C(=O)[C@H]2SC1(C)C > 100 µM (inactive)

Find the measured GI50 of COc1cc2nc3n(c2cc1OC)C(O)c1c(Cl)nc(SC)nc1S3 (configuration not stated) and report it. 15.4 µM (inactive)

In one line, give reported GI50 of the entry C[C@@H]1OCC(O)C([C@H]2OC(c3ccccc3)=N[C@H]2CO)O1 (some centres not stated) . > 100 µM (inactive)

====

Below, each entry is listed with its recorded GI50.
test system: SK-MEL-28; assay: NCI tumour cell line growth inhibition, 48 h
Active and inactive are the calls of the source. Cut-off read from the data, not from the text of the source: active = GI50 up to about 1.1 µM and inactive = higher.

Worked examples, 3 compounds total:
O=S(=O)(c1ccccc1)c1ccc(/N=N/O)nc1 ... > 100 µM (inactive)
O=C1CSC(c2ccccc2[N+](=O)[O-])N1c1ccc(-c2ccc(-n3c(-c4ccccc4)nc4ccccc4c3=O)cc2)cc1 (configuration not stated) ... > 100 µM (inactive)
Cc1ccc(-n2nc(C(OC3OC(CO)C(O)C(O)C3O)C(O)CO)c3nc4cc(C)c(C)cc4nc32)cc1 (configuration not stated) ... > 100 µM (inactive)

Could you now look at the following compound, please?
State the measured GI50 (SK-MEL-28) of COc1ccc2c(c1)Oc1cc(O)ccc1[C@H]2c1ccccc1C(=O)NC(C)c1ccccc1 (some centres not stated) 17.7 µM (inactive)
